- Tested on: HCC 2998
- experiment-summary: NCI tumour cell line growth inhibition, 48 h
Activity calls are given as the source filed them. Cut-off read from the data, not from the text of the source: active = GI50 up to about 1.1 µM and inactive = higher.
Outcome codes: active, inactive

{"columns": ["molecule", "class-name"],
 "data": [
  ["Oc1ccc(Br)cc1/C=N/c1c(NC2CCCCC2)oc2ccc(Br)cc12", "inactive"],
  ["O=c1nc(Oc2c(F)c(F)c(F)c(F)c2F)ccn1C1OC(CO)C(O)C1O (stereo not drawn)", "inactive"],
  ["O=S1(=O)NN=C(NCc2ccc(Cl)cc2)c2ccccc21", "inactive"],
  ["CC(=O)Nc1ccc2c3c(cc(O)c2c1)N(C(=O)CCCC(=O)N1CC(CCl)c2c1cc(O)c1cc(NC(C)=O)ccc21)CC3CCl (stereo not drawn)", "active"],
  ["O=[N+]([O-])c1ccccc1OCCOc1ccccc1[N+](=O)[O-]", "inactive"],
  ["C/C(=N\\NC(=S)NC(C)(C)C)c1ccccn1", "active"],
  ["COC(=O)/C=C/c1cc2c(cc1-c1c(C(=O)O)cc(OC)c(OC)c1OC)OCO2", "inactive"],
  ["COc1ccc(C(=O)O[C@H]2[C@@H]3C=CO[C@@H](OC4OC(CO)C(O)C(O)C4O)[C@@H]3[C@@]3(CO)O[C@@H]23)cc1O (stereo partly drawn)", "inactive"]
]}

====

// GI50 lookup, one value per entry
- System: KM12
- experiment-summary: NCI tumour cell line growth inhibition, 48 h
Active and inactive are the calls of the source. Rule as the data show it: active = GI50 up to about 1.1 µM and inactive = higher.

{"columns": ["compound", "GI50"],
 "data": [
  ["CCOC(=O)Nc1ccc(S(=O)(=O)Nn2cnnc2)cc1", "36.2 µM (inactive)"],
  ["N#Cc1c(-c2ccc(Cl)cc2)c(-c2ccc(Cl)cc2)nn(CCOC(=O)CCC(=O)O)c1=O", "0.245 µM (active)"],
  ["c1ccc2c(NCCCCCCNc3cccc4ccccc34)cccc2c1", "> 100 µM (inactive)"],
  ["CC(=O)NC1C(OCc2ccccc2)OC(CO)C(O)C1OC(C)C(=O)NC(C(=O)NC(CCC(=O)Nc1ccc2c(c1)CN1C(=O)c3ccccc3C1=N2)C(N)=O)C(C)C (stereo not given)", "> 100 µM (inactive)"],
  ["CSC1=N/C(=C\\c2ccc(C)cc2)C(=O)N1CN1CCOCC1", "91.8 µM (inactive)"],
  ["CCOC(=O)C1=C(C)N(c2ccc(Cl)cc2)C2(O)C=CC(O)=C3C(=O)c4ccccc4C(=O)C312 (stereo not given)", "6.97 µM (inactive)"],
  ["C=CCC1C(=O)CC2(C)C(CC=C)C(=O)CC12C (stereo not given)", "> 100 µM (inactive)"],
  ["CCOC(=O)/C=C(/C=C\\COC1CCCCO1)c1ccccc1 (stereo not given)", "25.2 µM (inactive)"],
  ["COc1cc(C2C3=C(COC3=O)Oc3cc4c(cc32)OCO4)cc(OC)c1OC (stereo not given)", "0.0112 µM (active)"],
  ["Cc1cn([C@@H]2C[C@H]2CO)c(=O)[nH]c1=O", "> 100 µM (inactive)"],
  ["COC1=C(OC)C(=O)c2cc(C)c(=O)c(C)cc2C1=O", "17.6 µM (inactive)"],
  ["CC(N1CCOCC1)C(O)(c1ccccc1)c1ccccn1 (stereo not given)", "> 100 µM (inactive)"],
  ["C=CCNC1=C2C[C@@H](C)C[C@@H](OC)[C@H](OC(=O)CN(C)C)[C@H](C)/C=C(\\C)[C@@H](OC(N)=O)[C@H](OC)/C=C\\C=C(/C)C(=O)NC(=CC1=O)C2=O", "0.024 µM (active)"],
  ["CC1(C)CN=C(Nc2cccc(C(F)(F)F)c2)S1", "> 100 µM (inactive)"],
  ["COc1ccc2ccnc(Cc3ccc(OCc4ccccc4)c(OC)c3)c2c1", "18 µM (inactive)"],
  ["O=C(OCc1ccccc1)N1c2cc([N+](=O)[O-])ccc2C(=O)N2CCC[C@H]2C1O (stereo not given in full)", "> 100 µM (inactive)"],
  ["CC(C)(C)OC(=O)N1CCC[C@H]1CSC[C@@H]1CCCN1C(=O)OC(C)(C)C", "20.9 µM (inactive)"],
  ["CC1=C(Br)C(=O)C(C)=C(Br)C1=O.Cc1c(O)c(Br)c(C)c(O)c1Br", "19.4 µM (inactive)"],
  ["[N-]=[N+]=NC1=C(c2ccccn2)C(=O)c2cccc3cccc1c23", "25.4 µM (inactive)"],
  ["S=C1CC(c2ccccc2)Sc2ccccc2N1 (stereo not given)", "95.3 µM (inactive)"]
]}
